protocol notes: Acute toxicity (LD50), mice
condition summary: mouse, in vivo, po
measurement name: LD50

- N=C1NC(=O)N2CC12 (stereo not shown): > 4000 mg/kg

====

protocol notes: Acute toxicity (LD50), rats
condition summary: rat, in vivo, single intravenous dose
measurement name: LD50 (mg/kg)

• N=C1NC(=O)N2CC12 (stereo not shown) = 660
